assayOverview: label from the status in PepcDB records
valueKind: protein production

Field: example entries. Status: answers known.
# sequenceCode, valueKind, recordedResult
records = [
    ("MSEVHTTIIDLDAGAVFSGTPSGRIIKGFDKPCAHTPNIDPDYVFHECSRDIVVWLMDSSDPLYVFGPTGSGKTSAIKQLAARLNYPVFDVTGHGRLEFPDLVGHLSVRDGSMEFQYGPLALAMRHGGILLLNEIDLLEPATATGFNGILDGEPLCIPENGGEIITPHPMFRFAATANTNGGSDDTGLYQGTLRQNLAFLDRFWLCEMPYPAPEAEKALLERRAPMLPDDIRTRMVDYANEVRRLFMGESGTTYGHSIEVTFSTRTLLRWADLTVRFQPLARQGIQPLTYALDRALGFKASKDTRTTLHELAQRLFPQHAATGE", "protein production", "failed"),
    ("LIIFCLLSVVAAAAYFSFSHWAIRHETLTFFDESRGRPVAIDLAVRRDAEMKAEAGMVTLPVAVVSHGNTVKNTEYSFLANVLAARGYLVASIQHDLPDDKPLMTVAGSLYVGRLAVYERGEKNIFFALKELKKLEPNADYDHLTLVGHSNGGDISMFFAQQHPEMVRRVVTLD", "protein production", "failed"),
    ("MRVNILMSTYNGEKFVADQIESIQKQTYTDWNLIIRDDGSSDRTCEIVDDFVSKDNRIKLIRAENVGVIKSFHELVTDSNNADFYFFADQDDYWLPEKLSVMLEETKKHDNSKPVMYYTDLKVTDRNLNVTSESMIRGQSDHANTKLVQELTENTVTGGASMINHELAQLWQSTNDIIMHDWYLAIVAAALGELVYIDQPTHLYRQHDSNVLGARTLSKRIKKWIHPNLWFEKYWWLITASQKQAQKLLTENLSLMSEDDKALVSDYVNILKQPKAERRQILDRYNLRKNKNYHTSIFRTLIITKFAYKGKKTNEFLQP", "protein production", "failed"),
    ("LLHRTFMADAGWSDLKAFEVILRHIPHDAALHAANSTPVRYLQLFEHAHYAGGEWSNRGTNGIEGATSTAMGFSEVYSGTTLLITGDLSFMYDSNALWMPYVNGRIRVIVMRNGGGGIFRFIPGPDSLKELETCFETPLEVPVREMAGAYGWRYMKAVSAEELETVLPSFFASGDRAVLLEVETPRFENAPVLKSYFTYISGESYPVNR", "protein production", "failed"),
    ("MSNWNLDNFDNLHSSLAESAYNSRPNSFPELFETDSVTEVKFSQPSEDNKGQITQGGTNLPNDGIVYLQPDKSLKSIDENVKVLIPDVNGGYHTEHYVTHSYQKGVLTDDKAGFNAYYLSDTEKIDSTTKHTYLAIRGSDGIGLDTLNDWVSNNAMFAVSNKYIPQAKLANKAMKEKIAELKGKAPGAIIDVTGHSLGTIVSSQAVVNLSYAELENVGQVVLFDGPDVSRSLEKMEGISAKKIQEAGKHVTYYVNPFDIVSMLNREKP", "protein production", "failed"),
    ("MQDSSSQHEPLWDRFGDLTVWKRGDQRAPHKPLLILYALGRLAQGDRWLRFSDIEEDLTDLLIEFGPPRQSHHPEYPFWHLRSDGVWVVPEADVLEMRQSASNPPKTELREKEARGGFSDDIHQAFRNDSELRRGIARLLLSSHFPTSLHEDIATAVSLDLEGAASERRDPEFRTQVLQAYQYRCAICGFNLQLGMSGTPIGVEAAHIKWKQARGPDEISNGIALCALHHKMLDKGALHVTEDLRLFVSEAVHGSQPHLSRLQDRHGNRIHTPQRETYYPNGEVVTWHVNEVFRGPPRV", "protein production", "failed"),
    ("MITETQLTAIQTYALQKLAHDHSGHGRDHLQRVNRLARRLAKDEGANLNLTLAAAWLHDVIDDKLMANPAKAHQDLIVQLNAQNVTADDQTAIFAIIDHMSFSKSFNGPQKLSLEGQVVQDADRLDAIGAIGIARALYYSGHVGEKIYDPAIAPREHMTREQYRHQPGTAINHFYEKLFKLAALMNTDTAKALAAHRTAVMHEFVDQFKAEWTADDKALEHHHHHH", "protein production", "not failed"),
    ("MIILKGNKIDYLFLLFGLLGLSTMIYSYLSFSLDVISRNSCTINSVISCSSVENSIYSTFLGIKLYYYGMAYFSAIIVLSLLVVKGTVKNIIGYVISLLSIIASIISVYLIYTEIFLLGHMCIVCTLAHVSIFSVLILSVIKFKV", "protein production", "failed"),
]

[ask] Check the records and state protein production for `AVGSGSEGFIVRLPAALLFKEGGIEVENSDGFLFVKRMAEIVNRLPKDVHVEVRGHTDTLPLPAQAPQDKLELTAKRALSVSKLLVKEGIDPKRITTVGRGDQDPLTHARTPEAQESNRRVDIYLYPKE`
[reply] not failed

[ask] Check the records and state protein production for `MASIEQVAELISSLEQATLMAQQIGTTVGQNQLLQISSLRIAHQRLSAFLASIPTAEAEKSFSSVEPMQLGEEEKGEAEPAEEERYSAIEKVEEKMRECFIRNKRLKRPLSPSSAVVETSATEERSGRDYGFDSDPHATKLRALDLIYQFHA`
[reply] failed

----------
assayOverview: label from the status in PepcDB records
valueKind: protein production

# sequenceCode, valueKind, recordedResult
measured = [
    ("MTNGGGGMSSGEGFRRRSSGEGFPAREFRWWVSGDRVFPRGFFGEGVQVGVPTVVSGEGVPAKVPGGDFSGKKVPAVVFRRVSSSDGGGRGSGGGGGGGSGLGW", "protein production", "failed"),
    ("KRFESPSVIKPNTLTNQQLIETCDQLIENAVKHHLVADVPVGLYLSGGIDSTLLLSKIRKLGHLNFPTFTIANSSREQAFGTRDFEFARLASKLYNSDHHEVSVHAEMLQDLPAFVSMIDQPIGDSALFLTHILSKEAGQHVRVALNGAGADELFAGYNRHSAYKSYLNNLLHKNLAITLIKSTYNILPDGGNHSLKKVFRLWNKFTGMMDVDPIKTCHNFSSSEYFIEKNTSIEVDDKSYEDLSYYLYYCLRNDRTKYLISDILALTDKMTMRSSIEARVPYLDQELRRFVESLDPSVLLKNGRKWILKEVLLRNGGETFLNRPKEGFGMPFGYWLKLPVNKNFVEKLTNKNHPIYEWVPYQTIKNLVDWHLGSKRDCSSELWSVLLLMHWYEKE", "protein production", "failed"),
]

----------
assayOverview: label from the status in PepcDB records
valueKind: protein production

Field: example entries. Status: answers known.
# sequenceCode, protein production
records = [
    ("MTAAPLVSVLLPVYNAGPYLAAALGSILRQDYGRLEVIAIDDGSSDNSLEILERYRQADSRVSIISRENRGLVATLNEGLAAAQGELVARMDADDVAYPWRLSRQVALFEQRPELGFCGAGVDMLIRGRIARGRPDPVFRFGRMPILAMFFTIFMHPTVVYNRKVIEDADLHYDPTYRHAEDFDLFGRLAARYPAAMMPENLLVYRVHQASVTSRHGKEMRRTHLRIVAENLEREGLAEATRDLRDIGEAVSFDTVTRAADFIVALEERIRSLPAETRPSFEAGALNLFYFLYQLVADERQPPLTHELLRRTAKWNAIRRREKYALRPGAWAPWLSLASLAAGKQADAVEYFFKSAPAAAVLASHQVG", "failed"),
    ("MKLTPKELDKLMLHYAGELAKKRKEKGIKLNYVEAVALISAHIMEEARAGKKTAAELMQEGRTLLKPDDVMDGVASMIHEVGIEAMFPDGTKLVTVHTPIEANGKLVPGELFLKNEDITINEGKKAVSVKVKNVGDRPVQIGSHFHFFEVNRCLDFDREKTFGKRLDIASGTAVRFEPGEEKSVELIDIGGNRRIFGFNALVDRQADNESKKIALHRAKERGFHGAKSDDNYVKTIKE", "failed"),
    ("MSKFRSCSWKCSDMGKSLCGAGGLVWTPPHPLLRKALSHRGRGVKDTNFVGMTTRAVRKGTLRARALRRTQTVEEKTLWLALRNRFLNVKFRRQWPMGGYVVDFVCFEAKLIVELDGSQHAEEAARDYDAVRTEFLEAGGFTVLRFWNNEVRKNLEGVLLEIQKRLP", "failed"),
    ("MTSTPPTPGPKLLEERSLGGILIHFLAIPTGVVGAGLLYLLATDEFTKRNARNALDWHLTVLLITAVTFGSVFTYAELTGQGVTDVSIFPSSVSTVAGIVTSALLMLWFAVTAWTFAVGLIAMVKAIFGTAWRYPFSLALVERFGSHINLSDRWPLVILGYIVLSPLLIWAVFFVPANDAIVILSAFGLLGLILGLTPLTGIAMYRHGKEHWLQDADQQSHVFAHVGLPILVAAIGYVVSWSFTQSVSPQGDAMYVFLAAFWISSIVYLIRWWTTSSE", "failed"),
]

[ask] Check the records and state protein production for `GLQAEWMQMSSLGTVDAPNFIVGNPWDDKLIFKLLSGLSKPVSSYPNTFEWQCKLPAIKPKTEFQLGSKLVYVHHLLGEGAFAQVYEATQGDLNDAKNKQKFVLKVQKPANPWEFYIGTQLMERLKPSMQHMFMKFYSAHLFQNGSVLVGELYSYGTLLNAINLYKNTPEKVMPQGLVISFAMRMLYMIEQVHDCEIIHGDIKPDNFILGNGFLEQDDEDDLSAGLALIDLGQSIDMKLFPKGTIFTAKCETSGFQCVEMLSNKPWNYQIDYFGVAATVYCMLFGTYMKVKNEGGECKPEGLFRRLPHLDMWNEFFHVMLNIPDCHHLPSLDLLRQKLKKVFQQHYTNKIRALRNRLIVLLLECKRSRK`
[reply] failed
